Hey, just so you know, these numbers are from patent US20090291081A1.

- Target: T1, human IL-1α (human, UniProt P01583 113-271)
- T1 sequence (looked up): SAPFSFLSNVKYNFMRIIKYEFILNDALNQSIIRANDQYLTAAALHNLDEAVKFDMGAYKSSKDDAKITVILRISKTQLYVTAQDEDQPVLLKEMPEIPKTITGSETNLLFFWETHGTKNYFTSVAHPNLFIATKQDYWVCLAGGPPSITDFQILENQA
- Assay Info: cell-based or functional assay
Measurement Name: Fab IL-1α ND10 (nM)
Hi! Could you send only the number? It should be in nM, unit omitted.

Qu. # return recorded Fab IL-1α ND10 for input Fab ABT1-122/ABT2-108 (Fab, V domains shown) VH: EVQLLESGGGLVQPGGSLRLSCAASGFTFAEYTMMWVRQAPGKGLEWVSRIGQDGKNTYYADSVKGRFTISRDNSKNTLYLQMNSLRAEDTAVYYCAKYTGRVGVHHLFDYWGQGTLVTSS VL: DIQMTQSPSSLSASVGDRVTITCRASQPIWTELNWYQQKPGKAPKLLIYGSSSLQSGVPRFSGSGSGTDFTLTISSLQPEDFATYYCQQFAYFPATFGQGTKVEIKR
Ans. 3

Qu. Please look at this binder and report its Fab IL-1α ND10: Fab ABT1-6-23/ABT2-46 (Fab, V domains shown) VH: EVQLLESGGGLVQPGGSLRLSCAASGFTFVRYDMAWVRQAPGKGLEWVSSIYKSGALTSYDSVKGRFTISRDNSKNTLYLQMNSLRAEDTAVYYCAKGWASFDYWGQGTLVTVSS VL: DIQMTQSPSSLSASVGDRVTITCRASQSIIEWLSWYQQKPGKAPKLLIYRTSVLQSGVPSRFSGSGSGTDFTLTISSLQPEDFATYYCQQNEFWPFTFGQGTKVEIKR
Ans. 4

Qu. Retrieve Fab IL-1α ND10 measured for Fab ABT1-141/ABT2-108 (Fab, V domains shown) VH: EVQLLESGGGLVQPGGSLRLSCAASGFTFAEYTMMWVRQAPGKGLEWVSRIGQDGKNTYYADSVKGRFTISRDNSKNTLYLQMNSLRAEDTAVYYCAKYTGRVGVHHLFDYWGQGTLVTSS VL: DIQMTQSPSSLSASVGDRVTITCRASQWIQKQLAWYQQKPGKAPKLLIYSSSYLQSGVPRFSGSGSGTDFTLTISSLQPEDFATYYCQQHLRVPFTFGQGTKVEIKR and print it.
Ans. 10

Qu. Specify measured Fab IL-1α ND10 for Fab ABT1-96/ABT2-46 (Fab, V domains shown) VH: EVQLLESGGGLVQPGGSLRLSCAASGFTFNQYNMFWVRQAPGKGLEWVSVISGSGRFTYADSVKGRFTISRDNSKNTLYLQMNSLRAEDTAVYYCAKGWWRRDPPFDYWGQGTLVTVSS VL: DIQMTQSPSSLSASVGDRVTITCRASQSIIEWLSWYQQKPGKAPKLLIYRTSVLQSGVPSRFSGSGSGTDFTLTISSLQPEDFATYYCQQNEFWPFTFGQGTKVEIKR .
Ans. 6

Qu. Kindly indicate its recorded Fab IL-1α ND10. Item: Fab ABT1-95/ABT2-13 (Fab, V domains shown) VH: EVQLLESGGGLVQPGGSLRLSCAASGFTFRDYVMYWARQAPGKGLEWVSRIDPMGSSTYYADSVKGRFTISRDNSKNTLYLQMNSLRAEDTAVYYCAKPEGNFDYWGQGTLVTVSS VL: DIQMTQSPSSLSASVGDRVTITCRASQPIHGNLRWYQQKPGKAPKLLIYNISNLQSGVPSRFSGSGSGTDFTLTISSLQPEDFATYYCQQGYRWPVTFGQGTKVEIKR
Ans. 200

Qu. Please indicate Fab IL-1α ND10 recorded for Fab ABT1-98/ABT2-76 (Fab, V domains shown) VH: EVQLLESGGGLVQPGGSLRLSCAASGFTFDGYIMSWVRQAPGKGLEWVSTISPLGSVTYYADSVKGRFTISRDNSKNTLYLQMNSLRAEDTAVYYCAKKGPWFDYWGQGTLVTVSS VL: DIQMTQSPSSLSASVGDRVTITCRASQSIDRWLAWYQQKPGKAPKLLIYRGSILQSGVPSRFSGSGSGTDFTLTISSLQPEDFATYYCQQVAFWPPTFGQGTKVEIKR
Ans. 100
